All figures here come from paper PMC3601957.

Listed here: items and their measured Kd.
Target: T1, RapF^E303K (B. subtilis, UniProt P71002 1-381, E303K)
T1 construct: RapF of Bacillus subtilis with Glu303 changed to Lys, made from pPROEX-RapF by site-directed mutagenesis; Same construct as m1 with the point mutation; also called RapF Glu303Lys; source: E. coli BL21 RIL, purified as native RapF; not shown: His6, N-terminal, cleaved
T1 sequence: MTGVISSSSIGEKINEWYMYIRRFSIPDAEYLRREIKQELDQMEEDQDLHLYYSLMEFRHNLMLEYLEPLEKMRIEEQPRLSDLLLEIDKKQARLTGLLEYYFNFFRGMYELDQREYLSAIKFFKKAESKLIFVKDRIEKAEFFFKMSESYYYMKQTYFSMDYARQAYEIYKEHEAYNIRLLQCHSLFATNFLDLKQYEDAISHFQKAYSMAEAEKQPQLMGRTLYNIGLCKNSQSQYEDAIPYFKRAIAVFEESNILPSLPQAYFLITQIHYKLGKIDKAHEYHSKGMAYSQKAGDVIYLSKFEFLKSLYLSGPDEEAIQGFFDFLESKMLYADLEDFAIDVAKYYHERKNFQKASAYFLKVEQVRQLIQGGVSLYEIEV
Assay: native gel or EMSA; titration on 8% native gel; 20 µg protein, peptide 50 nM to 1.2 mM in 20 µl buffer A, 15 min at room temperature; midpoint of the transition taken as the apparent Kd
Conditions: both partners purified
QUANTITY KIND: Kd (µM)

- BINDER: "ERGMT (mature active form of the PhrC precursor; also called PhrC peptide; RapC (PhrC) peptide) [PhrC]"
  QUANTITY KIND: "Kd"
  EXPERIMENTAL RESULT: 19.6
- BINDER: "QRGMI (mature active form of the PhrF precursor; The purchase from Genescript is stated for the crystallisation; no other source is named; also called PhrF peptide; source: bought: Genescript) [PhrF]"
  QUANTITY KIND: "Kd"
  EXPERIMENTAL RESULT: 13.2
